I'd appreciate it if you could supply inhibition of growth at 10 µM values for the items below.
Test: Cytotoxicity against human 786-0 cells assessed as growth inhibition at 10 uM after 48 hrs by SRB assay relative to control
Type: functional
Conditions: 786-0, 48 h, read-out: GI
Note: unit % is implicit; provide only the numeric part.

# input molecule: COc1ccc(CN2c3ccccc3CCc3ccccc32)cc1F ; wanted: its inhibition of growth at 10 µM
66

# input molecule: COc1ccc(CN2c3ccccc3Sc3ccccc32)c(C(F)(F)F)c1 ; wanted: its inhibition of growth at 10 µM
58

# input molecule: COc1ccc(CN2c3ccccc3Oc3ccccc32)cc1O ; wanted: its inhibition of growth at 10 µM
57

# input molecule: COc1ccc(CN2c3ccccc3Sc3ccccc32)cc1F ; wanted: its inhibition of growth at 10 µM
78

# input molecule: COc1ccc(CN2c3ccccc3Oc3ccccc32)cc1F ; wanted: its inhibition of growth at 10 µM
21

# input molecule: COc1ccc(CN2c3ccccc3Sc3ccccc32)cc1O ; wanted: its inhibition of growth at 10 µM
57

# input molecule: COc1ccc(CN2c3ccccc3Sc3ccccc32)c(F)c1 ; wanted: its inhibition of growth at 10 µM
58

###

Experiment: Cytotoxicity against human SF539 cells assessed as growth inhibition after 48 hrs by SRB assay
Type: functional
Conditions: SF-539, 48 h
Recorded metric: GI50 (nM)
Note: unit nM is implicit; provide only the numeric part.

# input compound: COc1ccc(CN2c3ccccc3CCc3ccccc32)cc1F ; wanted: its GI50
287

# input compound: COc1ccc(CN2c3ccccc3Sc3ccccc32)cc1O ; wanted: its GI50
270

# input compound: COc1ccc(CN2c3ccccc3Sc3ccccc32)cc1F ; wanted: its GI50
330

# input compound: COc1ccc(CN2c3ccccc3Sc3ccccc32)c(C(F)(F)F)c1 ; wanted: its GI50
452

###

I'd appreciate it if you could supply GI50 values for the items below.
Assay: Cytotoxicity against human OVCAR4 cells assessed as growth inhibition after 48 hrs by SRB assay
Format: functional
Details: OVCAR-4, 48 h
Note: unit nM is implicit; provide only the numeric part.

# input molecule: COc1ccc(CN2c3ccccc3Sc3ccccc32)cc1F ; wanted: its GI50
7250

# input molecule: COc1ccc(CN2c3ccccc3Sc3ccccc32)c(C(F)(F)F)c1 ; wanted: its GI50
2160

# input molecule: COc1ccc(CN2c3ccccc3Sc3ccccc32)cc1O ; wanted: its GI50
726

# input molecule: COc1ccc(CN2c3ccccc3CCc3ccccc32)cc1F ; wanted: its GI50
868

###

I'd appreciate it if you could supply GI50 values for the items below.
Test: Cytotoxicity against human SKOV3 cells assessed as growth inhibition after 48 hrs by SRB assay
Format: functional
Conditions: SK-OV-3, 48 h
Note: unit nM is implicit; provide only the numeric part.

# input compound: COc1ccc(CN2c3ccccc3Sc3ccccc32)cc1O ; wanted: its GI50
521

# input compound: COc1ccc(CN2c3ccccc3CCc3ccccc32)cc1F ; wanted: its GI50
471

# input compound: COc1ccc(CN2c3ccccc3Sc3ccccc32)c(C(F)(F)F)c1 ; wanted: its GI50
5570

# input compound: COc1ccc(CN2c3ccccc3Sc3ccccc32)cc1F ; wanted: its GI50
475

###

Experiment: Cytotoxicity against human SF295 cells assessed as growth inhibition at 10 uM after 48 hrs by SRB assay relative to control
Assay type: functional
Conditions: SF-295, 48 h, read-out: GI
I'd appreciate it if you could supply inhibition of growth at 10 µM values for the items below.
A complete answer gives the number followed by the unit.

# input compound: COc1ccc(CN2c3ccccc3Oc3ccccc32)cc1O ; wanted: its inhibition of growth at 10 µM
86%

# input compound: COc1ccc(CN2c3ccccc3Sc3ccccc32)cc1O ; wanted: its inhibition of growth at 10 µM
96%

# input compound: COc1ccc(CN2c3ccccc3Sc3ccccc32)c(F)c1 ; wanted: its inhibition of growth at 10 µM
92%

# input compound: COc1ccc(CN2c3ccccc3CCc3ccccc32)cc1F ; wanted: its inhibition of growth at 10 µM
88%

# input compound: COc1ccc(CN2c3ccccc3Sc3ccccc32)cc1F ; wanted: its inhibition of growth at 10 µM
88%

# input compound: COc1ccc(CN2c3ccccc3Sc3ccccc32)c(C(F)(F)F)c1 ; wanted: its inhibition of growth at 10 µM
98%

# input compound: COc1ccc(CN2c3ccccc3Oc3ccccc32)cc1F ; wanted: its inhibition of growth at 10 µM
67%

###

Assay: Cytotoxicity against human OVCAR3 cells assessed as growth inhibition at 10 uM after 48 hrs by SRB assay relative to control
Format: functional
Conditions: OVCAR-3, 48 h, read-out: GI
I'd appreciate it if you could supply inhibition of growth at 10 µM values for the items below.
Note: unit % is implicit; provide only the numeric part.

# input molecule: COc1ccc(CN2c3ccccc3Sc3ccccc32)c(C(F)(F)F)c1 ; wanted: its inhibition of growth at 10 µM
94

# input molecule: COc1ccc(CN2c3ccccc3CCc3ccccc32)cc1F ; wanted: its inhibition of growth at 10 µM
100

# input molecule: COc1ccc(CN2c3ccccc3Oc3ccccc32)cc1F ; wanted: its inhibition of growth at 10 µM
57

# input molecule: COc1ccc(CN2c3ccccc3Sc3ccccc32)cc1F ; wanted: its inhibition of growth at 10 µM
100

# input molecule: COc1ccc(CN2c3ccccc3Sc3ccccc32)cc1O ; wanted: its inhibition of growth at 10 µM
93

# input molecule: COc1ccc(CN2c3ccccc3Sc3ccccc32)c(F)c1 ; wanted: its inhibition of growth at 10 µM
100

# input molecule: COc1ccc(CN2c3ccccc3Oc3ccccc32)cc1O ; wanted: its inhibition of growth at 10 µM
81

###

Experiment: Cytotoxicity against human HCT15 cells assessed as growth inhibition after 48 hrs by SRB assay
Format: functional
Conditions: HCT-15, 48 h
Lab note: anything with GI50 below 400 nM is marked condition met; values at 400 nM or higher are marked condition not met.

Find out if reported GI50 for COc1ccc(CN2c3ccccc3Sc3ccccc32)cc1O is less than 400 nM
condition met

Find out if reported GI50 for COc1ccc(CN2c3ccccc3Sc3ccccc32)c(C(F)(F)F)c1 is less than 400 nM
condition not met

Find out if reported GI50 for COc1ccc(CN2c3ccccc3Sc3ccccc32)c(F)c1 is less than 400 nM
condition met

Find out if reported GI50 for COc1ccc(CN2c3ccccc3CCc3ccccc32)cc1F is less than 400 nM
condition not met

Find out if reported GI50 for COc1ccc(CN2c3ccccc3Sc3ccccc32)cc1F is less than 400 nM
condition not met

###

I'd appreciate it if you could supply GI50 values for the items below.
Test: Cytotoxicity against human HCC2998 cells assessed as growth inhibition after 48 hrs by SRB assay
Type: functional
Conditions: HCC 2998, 48 h
A complete answer gives the number followed by the unit.

# input compound: COc1ccc(CN2c3ccccc3Sc3ccccc32)c(C(F)(F)F)c1 ; wanted: its GI50
2000 nM

# input compound: COc1ccc(CN2c3ccccc3Sc3ccccc32)cc1O ; wanted: its GI50
422 nM

# input compound: COc1ccc(CN2c3ccccc3CCc3ccccc32)cc1F ; wanted: its GI50
8900 nM

# input compound: COc1ccc(CN2c3ccccc3Sc3ccccc32)cc1F ; wanted: its GI50
1130 nM

# input compound: COc1ccc(CN2c3ccccc3Sc3ccccc32)c(F)c1 ; wanted: its GI50
5060 nM

###

Test: Cytotoxicity against human HCT15 cells assessed as growth inhibition at 10 uM after 48 hrs by SRB assay relative to control
Type: functional
Settings: HCT-15, 48 h, read-out: GI
Recorded metric: inhibition of growth at 10 µM (%)
Note: unit % is implicit; provide only the numeric part.

# input compound: COc1ccc(CN2c3ccccc3Sc3ccccc32)cc1O ; wanted: its inhibition of growth at 10 µM
67

# input compound: COc1ccc(CN2c3ccccc3CCc3ccccc32)cc1F ; wanted: its inhibition of growth at 10 µM
75

# input compound: COc1ccc(CN2c3ccccc3Sc3ccccc32)c(F)c1 ; wanted: its inhibition of growth at 10 µM
65

# input compound: COc1ccc(CN2c3ccccc3Sc3ccccc32)cc1F ; wanted: its inhibition of growth at 10 µM
84

# input compound: COc1ccc(CN2c3ccccc3Sc3ccccc32)c(C(F)(F)F)c1 ; wanted: its inhibition of growth at 10 µM
63

# input compound: COc1ccc(CN2c3ccccc3Oc3ccccc32)cc1O ; wanted: its inhibition of growth at 10 µM
72

# input compound: COc1ccc(CN2c3ccccc3Oc3ccccc32)cc1F ; wanted: its inhibition of growth at 10 µM
53

###

I'd appreciate it if you could supply inhibition of growth at 10 µM values for the items below.
Assay: Cytotoxicity against human RPMI8226 cells assessed as growth inhibition at 10 uM after 48 hrs by SRB assay relative to control
Type: functional
Conditions: RPMI-8226, 48 h, read-out: GI
Note: unit % is implicit; provide only the numeric part.

# input compound: COc1ccc(CN2c3ccccc3Sc3ccccc32)c(C(F)(F)F)c1 ; wanted: its inhibition of growth at 10 µM
71

# input compound: COc1ccc(CN2c3ccccc3Oc3ccccc32)cc1F ; wanted: its inhibition of growth at 10 µM
39

# input compound: COc1ccc(CN2c3ccccc3Sc3ccccc32)cc1F ; wanted: its inhibition of growth at 10 µM
79

# input compound: COc1ccc(CN2c3ccccc3Sc3ccccc32)cc1O ; wanted: its inhibition of growth at 10 µM
76

# input compound: COc1ccc(CN2c3ccccc3Oc3ccccc32)cc1O ; wanted: its inhibition of growth at 10 µM
86

# input compound: COc1ccc(CN2c3ccccc3CCc3ccccc32)cc1F ; wanted: its inhibition of growth at 10 µM
91

# input compound: COc1ccc(CN2c3ccccc3Sc3ccccc32)c(F)c1 ; wanted: its inhibition of growth at 10 µM
88
